B1: HDV Ribozyme (parent)
chain: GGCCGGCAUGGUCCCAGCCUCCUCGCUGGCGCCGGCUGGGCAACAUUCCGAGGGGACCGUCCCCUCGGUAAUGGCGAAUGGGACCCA

# Variants of: B1
# protocol-summary: self-cleavage, relative activity (ratio to wild type); higher = more cleavage; co-transcriptional
Decide using self-cleavage: a value greater than or equal to 0.1 is class 1, a smaller one is class 0.

Study these solved cases before continuing.
{"columns": ["sequence-change", "group"],
 "data": [
  ["U20C A83G", "class 1"],
  ["G39A C61U", "class 1"],
  ["U27G C86G", "class 1"],
  ["G2C C24U", "class 0"]
]}

**Q:** Is the recorded value of self-cleavage equal to or greater than 0.1 for this variant? G5A A16G
**A:** class 1

**Q:** Is the recorded value of self-cleavage equal to or greater than 0.1 for this variant? G34A C41A
**A:** class 1

**Q:** Is the recorded value of self-cleavage equal to or greater than 0.1 for this variant? C57G G67C
**A:** class 1

**Q:** Is the recorded value of self-cleavage equal to or greater than 0.1 for this variant? G28A G39C
**A:** class 1

**Q:** Is the recorded value of self-cleavage equal to or greater than 0.1 for this variant? G39A G54U
**A:** class 1

**Q:** Is the recorded value of self-cleavage equal to or greater than 0.1 for this variant? C22G G34A
**A:** class 0

**Q:** Is the recorded value of self-cleavage equal to or greater than 0.1 for this variant? G11A U69G
**A:** class 1

**Q:** Is the recorded value of self-cleavage equal to or greater than 0.1 for this variant? G31A C86A
**A:** class 1

**Q:** Is the recorded value of self-cleavage equal to or greater than 0.1 for this variant? G38A C48G
**A:** class 1

**Q:** Is the recorded value of self-cleavage equal to or greater than 0.1 for this variant? C48A C86G
**A:** class 1

**Q:** Is the recorded value of self-cleavage equal to or greater than 0.1 for this variant? C7A G81C
**A:** class 0
